Here the recorded K is given for each entry.
test system: Nucleic Acid; test: Binding constant towards AT-rich calf thymus DNA hairpin; format: nucleic-acid assay; conditions: Bos taurus
Give just the number in M⁻¹; leave the unit off.

Consider the reported K for these compounds:
>>> assay_value("COCCOCCCNCCC(=O)Nc1ccc2c(c1)C(=O)c1ccc(NC(=O)CCNCCCOCCOC)cc1C2=O")
550000
>>> assay_value("COCCCNCCC(=O)Nc1ccc2c(c1)C(=O)c1ccc(NC(=O)CCNCCCOC)cc1C2=O")
760000
>>> assay_value("COCCOCCOCCOCCCNCCC(=O)Nc1ccc2c(c1)C(=O)c1ccc(NC(=O)CCNCCCOCCOCCOCCOC)cc1C2=O")
190000

Shift focus to the following entry.
Problem: Item COCCOCCOCCCNCCC(=O)Nc1ccc2c(c1)C(=O)c1ccc(NC(=O)CCNCCCOCCOCCOC)cc1C2=O has what recorded K?
Result: 250000
